# Read-out: ABC Transporter (ABCC3), ABCC3 (gene 8714)
# Test description: LTEA_HepaRG_ABCC3: Life Technologies and Expression Analysis (LTEA) Assay for ABC Transporter (ABCC3) using HepaRG (AID 2283462)
# Condition summary: mRNA level, 48 h; actives raise or lower the signal
The source made the active and inactive calls. The calls were made as follows: active = hit-call score of the fitted dose curve at least 0.9, where 1 is the maximum; inactive = score below 0.9.
Please reply with one of these outcomes: active, inactive

In: Which result was noted for this molecule in the test: COP(=S)(OC)SCn1nnc2ccccc2c1=O
Out: inactive

In: Which result was noted for this molecule in the test: CCOc1cc(C(C)(C)C)ccc1C1COC(c2c(F)cccc2F)=N1 (centres undefined)
Out: inactive

In: Which result was noted for this molecule in the test: O=c1n(Cl)c(=O)n(Cl)c(=O)n1Cl
Out: inactive

In: Which result was noted for this molecule in the test: COC(=O)NC(=S)Nc1ccccc1NC(=S)NC(=O)OC
Out: inactive

In: Which result was noted for this molecule in the test: COC(=O)NS(=O)(=O)c1ccc(N)cc1
Out: inactive

In: Which result was noted for this molecule in the test: CC(C)N1C(=O)c2ccccc2NS1(=O)=O
Out: inactive

In: Which result was noted for this molecule in the test: CC1(C)C(C(=O)OC(C#N)c2cccc(Oc3ccccc3)c2)C1(C)C (centres undefined)
Out: inactive

In: Which result was noted for this molecule in the test: CCNC(=O)NC(=O)C(C#N)=NOC
Out: active

In: Which result was noted for this molecule in the test: Cn1c(-c2ccccc2)cc(-c2ccccc2)[n+]1C
Out: active
